Sourced from ChEMBL document CHEMBL1157123

Target: Sterol O-acyltransferase 1 (Homo sapiens)
Assay: Inhibition of ACAT at 10 ug/ml
Activity calls are given as the source filed them. No cut-off for these calls is given here.
readout.type: inhibition

>>> test_value("COc1cc2oc3c(S(=O)(=O)NC(c4ccccc4)c4ccccc4)c(OC)cc(OC)c3c(=O)c2cc1OC")
"inactive"
>>> test_value("CCN(CC)C(=O)C1CCCN(S(=O)(=O)c2c(OC)cc(OC)c3c(=O)c4cc(OC)c(OC)cc4oc23)C1 (centres undefined)")
"12.6%"
>>> test_value("COc1cc2oc3c(S(=O)(=O)N4CCN(c5cccc(C)c5)CC4)c(OC)cc(OC)c3c(=O)c2cc1OC")
"64.8%"
>>> test_value("COc1cc2oc3c(S(=O)(=O)N4CCN(c5ccccn5)CC4)c(OC)cc(OC)c3c(=O)c2cc1OC")
"43.6%"

## Input Respond only with inhibition recorded for `COc1cc2oc3c(S(=O)(=O)NOCc4ccccc4)c(OC)cc(OC)c3c(=O)c2cc1OC`
## Output 16.8%

## Input Respond only with inhibition recorded for CCCCCCCCCC[Si](C)(C)CCC(=O)NC(Cc1ccc(C)cc1)c1ccccc1 (centres undefined)
## Output 55%

## Input Respond only with inhibition recorded for COc1cc2oc3c(S(=O)(=O)N4CCC(N(C)C)C4)c(OC)cc(OC)c3c(=O)c2cc1OC (centres undefined)
## Output 21%

###

Target: Sterol O-acyltransferase 1 (Homo sapiens) (UniProt P35610)
Sequence (whole entry): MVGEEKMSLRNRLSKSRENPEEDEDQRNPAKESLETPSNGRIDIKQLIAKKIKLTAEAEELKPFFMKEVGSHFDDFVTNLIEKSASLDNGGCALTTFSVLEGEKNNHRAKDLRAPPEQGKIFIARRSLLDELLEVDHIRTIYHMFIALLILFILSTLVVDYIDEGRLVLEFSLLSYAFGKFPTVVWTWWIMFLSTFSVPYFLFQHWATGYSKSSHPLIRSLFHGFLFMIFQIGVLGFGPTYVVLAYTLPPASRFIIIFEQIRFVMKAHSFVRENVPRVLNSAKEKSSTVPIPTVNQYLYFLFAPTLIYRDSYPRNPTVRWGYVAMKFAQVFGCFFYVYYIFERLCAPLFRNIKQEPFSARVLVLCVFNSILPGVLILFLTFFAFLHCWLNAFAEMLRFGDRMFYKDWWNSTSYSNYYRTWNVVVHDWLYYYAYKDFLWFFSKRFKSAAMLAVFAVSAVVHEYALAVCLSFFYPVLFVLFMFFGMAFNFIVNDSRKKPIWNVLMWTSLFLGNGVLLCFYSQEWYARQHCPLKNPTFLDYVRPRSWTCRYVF
Test: Inhibition of ACAT at 10 ug/ml
Calls of active or inactive are those of the source. The calls are words filed in the database; no cut-off is given here.
readout.type: inhibition

Here is how some compounds turned out for inhibition.
>>> test_value("COc1cc2oc3c(S(=O)(=O)N4CCCCC4)c(OC)cc(OC)c3c(=O)c2cc1OC")
"10.5%"
>>> test_value("COc1cc2oc3c(S(=O)(=O)NCCc4ccc(C)c(C)c4)c(OC)cc(OC)c3c(=O)c2cc1OC")
"11.9%"
>>> test_value("CCCNS(=O)(=O)c1c(OC)cc(OC)c2c(=O)c3cc(OC)c(OC)cc3oc12")
"inactive"
>>> test_value("COc1cc2oc3c(S(=O)(=O)NCC(C)c4ccccc4)c(OC)cc(OC)c3c(=O)c2cc1OC (configuration not stated)")
"10.8%"
>>> test_value("COc1cc2oc3c(S(=O)(=O)NC4CC4)c(OC)cc(OC)c3c(=O)c2cc1OC")
"inactive"
>>> test_value("COc1cc2oc3c(S(=O)(=O)NCc4ccc5ccccc5c4)c(OC)cc(OC)c3c(=O)c2cc1OC")
"25%"

## Input Respond only with inhibition recorded for `COc1cc2oc3c(S(=O)(=O)N4CCN(C)CC4)c(OC)cc(OC)c3c(=O)c2cc1OC`
## Output 14.5%

## Input Respond only with inhibition recorded for `COc1cc2oc3c(S(=O)(=O)N4CC=C(c5ccccc5)CC4)c(OC)cc(OC)c3c(=O)c2cc1OC`
## Output 51.3%

## Input Respond only with inhibition recorded for `COc1cc2oc3c(S(=O)(=O)N4C[C@@H](C)O[C@@H](C)C4)c(OC)cc(OC)c3c(=O)c2cc1OC`
## Output 8.84%

###

molecules and their reported inhibition
Molecular target: Sterol O-acyltransferase 1 (Homo sapiens)
Test: Inhibition of ACAT at 10 ug/ml

>>> test_value("COc1ccc(CCCN(C)S(=O)(=O)c2c(OC)cc(OC)c3c(=O)c4cc(OC)c(OC)cc4oc23)cc1OC")
"30.1%"
>>> test_value("COc1cc2oc3c(S(=O)(=O)NCc4cccc(Cl)c4)c(OC)cc(OC)c3c(=O)c2cc1OC")
"15.8%"
>>> test_value("COc1cc2oc3c(S(=O)(=O)NCc4ccc(F)cc4)c(OC)cc(OC)c3c(=O)c2cc1OC")
"10.2%"
>>> test_value("CCOC(=O)C1CCCN(S(=O)(=O)c2c(OC)cc(OC)c3c(=O)c4cc(OC)c(OC)cc4oc23)C1 (stereo not drawn)")
"7.99%"
>>> test_value("CCOC(=O)CN(C)S(=O)(=O)c1c(OC)cc(OC)c2c(=O)c3cc(OC)c(OC)cc3oc12")
"16.8%"
>>> test_value("COC(=O)CNS(=O)(=O)c1c(OC)cc(OC)c2c(=O)c3cc(OC)c(OC)cc3oc12")
"5.13%"

Now consider a different molecule.
## Input Respond only with inhibition recorded for `COc1ccc(N2CCN(S(=O)(=O)c3c(OC)cc(OC)c4c(=O)c5cc(OC)c(OC)cc5oc34)CC2)cc1`
## Output 36.9%
